Target: adenosine A2a receptor (Homo sapiens)
Assay: Indirect determination of adenosine agonism by way of gene expression (cAMP-dependent luciferase), A2a cells
Settings: CHO cells stably transfected with A2a receptor cDNA; 50% of the maximum stimulation of luciferase
pEC50: −log10 of the molar value.
MEASURED ATTRIBUTE: pEC50

N#Cc1c(N)nc(SCc2coc(-c3ccc(Cl)cc3)n2)c(C#N)c1-c1ccc(OC[C@@H](O)CO)nc1 [Example 42] | 6.45
N#Cc1c(NCCO)nc(SCc2csc(-c3ccc(Cl)cc3)n2)c(C#N)c1-c1ccc(OCCO)nc1 [Example 46] | 6.58
N#Cc1c(N)nc(SCc2csc(Nc3ccc(F)cc3)n2)c(C#N)c1-c1ccc(OCCO)nc1 [Example 3] | 6.91
N#Cc1c(N)nc(SCc2csc(Nc3cccc(F)c3)n2)c(C#N)c1-c1ccc(OCCO)nc1 [Example 5] | 6.72

a: N#Cc1c(N)nc(SCc2csc(Nc3ccc(F)c(F)c3)n2)c(C#N)c1-c1ccc(OCCO)nc1 [Example 11]
b: N#Cc1c(N)nc(SCc2csc(-c3ccc(Cl)cc3)n2)c(C#N)c1-c1ccc(OCCO)nc1 [Example 19]
Choose between a and b : whose measured pEC50 value is numerically larger? Bench note: the answer is the label of the chosen record.
a

====

Molecular target: adenosine A1 receptor (Homo sapiens, UniProt P30542)
Construct: expressed in transfected cells; host or cells: CHO (Chinese Hamster Ovary)
Sequence (P30542 whole entry): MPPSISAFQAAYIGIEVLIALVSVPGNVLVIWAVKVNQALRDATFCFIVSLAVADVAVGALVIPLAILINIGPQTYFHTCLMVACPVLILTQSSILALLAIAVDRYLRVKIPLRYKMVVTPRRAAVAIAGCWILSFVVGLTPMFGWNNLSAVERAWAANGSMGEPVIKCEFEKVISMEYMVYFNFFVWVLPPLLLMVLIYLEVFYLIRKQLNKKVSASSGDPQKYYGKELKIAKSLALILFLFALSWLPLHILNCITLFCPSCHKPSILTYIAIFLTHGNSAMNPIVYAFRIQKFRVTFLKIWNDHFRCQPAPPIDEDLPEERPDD
Test: Indirect determination of adenosine agonism by way of gene expression (cAMP-dependent luciferase), A1 cells
Format: cell-based
Conditions: CHO cells stably transfected with A1 receptor cDNA; 1 μM forskolin; concentration at which 50% of the luciferase answer is inhibited
MEASURED ATTRIBUTE: EC50 (nM)

N#Cc1c(N)nc(SCc2cscn2)c(C#N)c1-c1ccc(OCCO)nc1 | 0.09
N#Cc1c(NCCO)nc(SCc2csc(-c3ccc(Cl)cc3)n2)c(C#N)c1-c1ccc(OCCO)nc1 | 0.04
N#Cc1c(N)nc(SCc2coc(-c3ccc(Cl)cc3)n2)c(C#N)c1-c1ccc(OCCO)nc1 | 0.09

1: N#Cc1c(N)nc(SCc2coc(-c3ccc(Cl)cc3)n2)c(C#N)c1-c1ccc(OC[C@@H](O)CO)nc1
2: N#Cc1c(N)nc(SCc2csc(-c3ccc(Cl)cc3)n2)c(C#N)c1-c1ccc(OCCO)nc1
3: Cc1oc(-c2ccc(Cl)cc2)nc1CSc1nc(N)c(C#N)c(-c2ccc(OCCO)nc2)c1C#N
4: N#Cc1c(N)nc(SCc2cccc(Nc3ccncc3)n2)c(C#N)c1-c1ccc(OCCO)nc1
// ascending sort on recorded EC50 Reply: labels, ordered per the request.
2, 1, 3, 4
(2: 0.04 nM, 1: 0.09 nM, 3: 0.3 nM, 4: 0.6 nM)

====

Biological target: adenosine A2b receptor (Homo sapiens)
Sequence (P29275 whole entry): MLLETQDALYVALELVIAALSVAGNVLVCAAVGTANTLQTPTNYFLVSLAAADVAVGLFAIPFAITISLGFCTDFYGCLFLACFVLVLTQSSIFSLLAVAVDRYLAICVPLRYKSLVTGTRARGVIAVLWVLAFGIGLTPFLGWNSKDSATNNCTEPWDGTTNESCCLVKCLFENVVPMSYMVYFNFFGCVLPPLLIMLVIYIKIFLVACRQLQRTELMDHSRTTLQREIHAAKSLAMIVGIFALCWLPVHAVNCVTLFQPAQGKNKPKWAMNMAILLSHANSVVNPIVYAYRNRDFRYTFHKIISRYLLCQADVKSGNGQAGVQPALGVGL
Test: Indirect determination of adenosine agonism by way of gene expression (cAMP-dependent luciferase), A2b cells
Settings: CHO cells stably transfected with A2b receptor cDNA; 50% of the maximum stimulation of luciferase
MEASURED ATTRIBUTE: EC50 (nM)

The cases that follow already have their EC50 on record.
N#Cc1c(N)nc(SCc2csc(-c3ccc(Cl)cc3)n2)c(C#N)c1-c1ccc(OCCO)nc1 | 234
N#Cc1c(N)nc(SCc2csc(Nc3ccc(F)c(F)c3)n2)c(C#N)c1-c1ccc(OCCO)nc1 | 5.7
N#Cc1c(N)nc(SCc2cscn2)c(C#N)c1-c1ccc(OCCO)nc1 | 5.5
N#Cc1c(N)nc(SCc2coc(-c3ccc(Cl)cc3)n2)c(C#N)c1-c1ccc(OC[C@@H](O)CO)nc1 | 516
N#Cc1c(N)nc(SCc2coc(-c3ccc(Cl)cc3)n2)c(C#N)c1-c1ccc(OC[C@H](O)CO)nc1 | 185
Cc1oc(-c2ccc(Cl)cc2)nc1CSc1nc(N)c(C#N)c(-c2ccc(OCCO)nc2)c1C#N | 1260

A: N#Cc1c(N)nc(SCc2csc(Nc3ccc(F)c(Cl)c3)n2)c(C#N)c1-c1ccc(OCCO)nc1
B: N#Cc1c(N)nc(SCc2csc(Nc3ccc(F)cc3)n2)c(C#N)c1-c1ccc(OCCO)nc1
Among A and B , whose measured EC50 is the smaller figure? Provide the label of your selected option as the answer.
B
(B: 3.7 nM, A: 5.8 nM)

A: N#Cc1c(N)nc(SCc2csc(Nc3cccc(F)c3)n2)c(C#N)c1-c1ccc(OCCO)nc1
B: N#Cc1c(N)nc(SCc2cccc(Nc3ccncc3)n2)c(C#N)c1-c1ccc(OCCO)nc1
Short answer wanted: higher EC50, A or B ? Answer with the label corresponding to your selection.
B

1: N#Cc1c(NCCO)nc(SCc2csc(-c3ccc(Cl)cc3)n2)c(C#N)c1-c1ccc(OCCO)nc1
2: N#Cc1c(SCc2csc(-c3ccc(Cl)cc3)n2)nc(N2CCCC2)c(C#N)c1-c1ccc(OCCO)nc1
Name the one with the greater EC50 value, either 1 or 2 as given. // respond with label for picked entry
1

====

Target: adenosine A1 receptor (Homo sapiens, UniProt P30542)
Construct: expressed in transfected cells; host or cells: CHO (Chinese Hamster Ovary)
Assay: Indirect determination of adenosine agonism by way of gene expression (cAMP-dependent luciferase), A1 cells
Assay type: cell-based
Details: CHO cells stably transfected with A1 receptor cDNA; 1 μM forskolin; concentration at which 50% of the luciferase answer is inhibited
MEASURED ATTRIBUTE: EC50 (nM)

N#Cc1c(N)nc(SCc2csc(Nc3ccc(F)cc3)n2)c(C#N)c1-c1ccc(OCCO)nc1 [Example 3] | 0.2
N#Cc1c(N)nc(SCc2csc(Nc3cccc(F)c3)n2)c(C#N)c1-c1ccc(OCCO)nc1 [Example 5] | 0.6
N#Cc1c(N)nc(SCc2csc(Nc3ccc(F)c(F)c3)n2)c(C#N)c1-c1ccc(OCCO)nc1 [Example 11] | 0.4
N#Cc1c(N)nc(SCc2ncon2)c(C#N)c1-c1ccc(OCCO)nc1 [Example 25] | 4.1

A: Cc1cc(CSc2nc(N)c(C#N)c(-c3ccc(OCCO)nc3)c2C#N)nc(Nc2ccc(F)cc2)n1 [Example 21]
B: N#Cc1c(SCc2csc(-c3ccc(Cl)cc3)n2)nc(N2CCCC2)c(C#N)c1-c1ccc(OCCO)nc1 [Example 44]
C: N#Cc1c(N)nc(SCc2coc(-c3ccc(Cl)cc3)n2)c(C#N)c1-c1ccc(OC[C@H](O)CO)nc1 [Example 43]
D: N#Cc1c(N)nc(SCc2csc(Nc3ccc(F)c(Cl)c3)n2)c(C#N)c1-c1ccc(OCCO)nc1 [Example 1]
Could you please sort these 4 entries by EC50 from high to low? Returns: the labels listed in the requested order.
A, D, B, C

====

Biological target: adenosine A2a receptor (Homo sapiens, UniProt P29274)
Sequence (P29274 whole entry): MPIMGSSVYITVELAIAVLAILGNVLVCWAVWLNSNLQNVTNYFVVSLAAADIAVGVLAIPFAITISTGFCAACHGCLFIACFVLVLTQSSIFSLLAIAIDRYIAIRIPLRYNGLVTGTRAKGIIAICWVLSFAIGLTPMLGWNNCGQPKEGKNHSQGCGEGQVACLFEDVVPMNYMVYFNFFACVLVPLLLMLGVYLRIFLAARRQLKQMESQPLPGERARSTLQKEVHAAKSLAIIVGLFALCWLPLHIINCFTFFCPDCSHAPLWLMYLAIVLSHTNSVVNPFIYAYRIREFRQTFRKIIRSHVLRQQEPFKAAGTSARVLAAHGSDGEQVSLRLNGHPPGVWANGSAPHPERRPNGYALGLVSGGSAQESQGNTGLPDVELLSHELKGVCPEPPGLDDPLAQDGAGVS
Assay: Indirect determination of adenosine agonism by way of gene expression (cAMP-dependent luciferase), A2a cells
Settings: CHO cells stably transfected with A2a receptor cDNA; 50% of the maximum stimulation of luciferase
MEASURED ATTRIBUTE: EC50 (µM)

Solved cases (2 shown):
Cc1oc(-c2ccc(Cl)cc2)nc1CSc1nc(N)c(C#N)c(-c2ccc(OCCO)nc2)c1C#N | 1.75
N#Cc1c(N)nc(SCc2coc(-c3ccc(Cl)cc3)n2)c(C#N)c1-c1ccc(OCCO)nc1 | 0.101

P: N#Cc1c(N)nc(SCc2cccc(Nc3ccncc3)n2)c(C#N)c1-c1ccc(OCCO)nc1
Q: N#Cc1c(N)nc(SCc2cscn2)c(C#N)c1-c1ccc(OCCO)nc1
R: N#Cc1c(N)nc(SCc2coc(-c3ccc(Cl)cc3)n2)c(C#N)c1-c1ccc(OC[C@H](O)CO)nc1
S: N#Cc1c(SCc2csc(-c3ccc(Cl)cc3)n2)nc(N2CCCC2)c(C#N)c1-c1ccc(OCCO)nc1
T: N#Cc1c(N)nc(SCc2csc(Nc3ccc(F)c(Cl)c3)n2)c(C#N)c1-c1ccc(OCCO)nc1
Please put the entries in order of rising EC50. The response must list the labels following the requested ordering.
Q, R, P, S, T
(Q: 0.021 µM, R: 0.072 µM, P: 0.12 µM, S: 0.547 µM, T: 2.18 µM)

====

Target: adenosine A2b receptor (Homo sapiens)
Experiment: Indirect determination of adenosine agonism by way of gene expression (cAMP-dependent luciferase), A2b cells
Details: CHO cells stably transfected with A2b receptor cDNA; 50% of the maximum stimulation of luciferase
MEASURED ATTRIBUTE: EC50

Examples with answers:
Cc1cc(CSc2nc(N)c(C#N)c(-c3ccc(OCCO)nc3)c2C#N)nc(Nc2ccc(F)cc2)n1 | > 3000 nM
N#Cc1c(N)nc(SCc2ncon2)c(C#N)c1-c1ccc(OCCO)nc1 | > 3000 nM

Okay, next one:
# EC50 lookup, item N#Cc1c(N)nc(SCc2coc(-c3ccc(Cl)cc3)n2)c(C#N)c1-c1ccc(OCCO)nc1
235 nM
